The compounds listed here are annotated with their log10 MIC.
Tested on: Cunninghamella bertholletiae
Assay: Antifungal activity against Cunninghamella bertholletiae UTHSC 06-1945 after 24 hrs by broth microdilution method
Assay type: functional
Details: UTHSC 06-1945, 24 h
Reminder: these figures are log10 of reported MIC, in µg/mL before transformation.

Would you please look over these solved cases?
Compound	log10 MIC
CN(C/C=C/C#CC(C)(C)C)Cc1cccc2ccccc12	-1.52
CC[C@@H]([C@H](C)O)n1ncn(-c2ccc(N3CCN(c4ccc(OC[C@@H]5CO[C@@](Cn6cncn6)(c6ccc(F)cc6F)C5)cc4)CC3)cc2)c1=O	-0.30
C[C@@H]1[C@H](O)[C@@H](C)/C=C/C=C/C=C/C=C/C=C/C=C/C=C/[C@H](O[C@@H]2O[C@H](C)[C@@H](O)[C@H](N)[C@@H]2O)C[C@@H]2O[C@](O)(C[C@@H](O)C[C@@H](O)[C@H](O)CC[C@@H](O)C[C@@H](O)CC(=O)O[C@H]1C)C[C@H](O)[C@H]2C(=O)O	0.60
C[C@@H](c1ncncc1F)[C@](O)(Cn1cncn1)c1ccc(F)cc1F	1.20

Kindly review the next compound as well.
Readout log10 MIC for CCC(C)n1ncn(-c2ccc(N3CCN(c4ccc(OCC5COC(Cn6cncn6)(c6ccc(Cl)cc6Cl)O5)cc4)CC3)cc2)c1=O (configuration not stated) , test system Cunninghamella bertholletiae, was 0.30
